# MEASUREMENT TARGET: Ba/F3-TEL-FGFR3 cells (Homo sapiens, UniProt P22607)
# Construct: fused on or other part: TEL (ETV6) N-terminal oligomerising part fused to the FGFR3 kinase part; P41212 (Transcription factor ETV6)
# Sequence (P22607 whole entry, change not shown, the tested form may be a part): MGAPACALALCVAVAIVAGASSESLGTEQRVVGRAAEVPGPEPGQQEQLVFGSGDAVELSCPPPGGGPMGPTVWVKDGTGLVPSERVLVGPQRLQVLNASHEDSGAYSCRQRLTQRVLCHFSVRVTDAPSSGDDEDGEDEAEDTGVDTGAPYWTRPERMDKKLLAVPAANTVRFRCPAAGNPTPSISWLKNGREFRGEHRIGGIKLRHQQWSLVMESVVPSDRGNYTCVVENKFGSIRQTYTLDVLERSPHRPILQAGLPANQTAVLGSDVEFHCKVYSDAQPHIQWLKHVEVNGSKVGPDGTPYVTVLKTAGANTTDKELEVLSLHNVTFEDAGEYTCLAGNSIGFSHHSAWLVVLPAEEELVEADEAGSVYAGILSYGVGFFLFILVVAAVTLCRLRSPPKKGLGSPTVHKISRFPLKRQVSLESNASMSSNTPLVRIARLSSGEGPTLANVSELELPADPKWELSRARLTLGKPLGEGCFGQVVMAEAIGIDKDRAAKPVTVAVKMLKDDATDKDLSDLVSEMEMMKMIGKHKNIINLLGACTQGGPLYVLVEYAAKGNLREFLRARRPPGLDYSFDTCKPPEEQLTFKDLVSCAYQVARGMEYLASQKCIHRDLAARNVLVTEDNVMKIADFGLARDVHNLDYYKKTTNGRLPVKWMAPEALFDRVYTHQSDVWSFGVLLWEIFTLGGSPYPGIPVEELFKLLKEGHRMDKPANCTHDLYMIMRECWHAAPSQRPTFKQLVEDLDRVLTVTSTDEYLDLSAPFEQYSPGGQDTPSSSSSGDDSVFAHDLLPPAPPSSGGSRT
# PROCEDURE SUMMARY: Ba/F3-TEL-FGFR3 cell proliferation assay (Alamar Blue)
# Format: cell-based, murine
# CONDITION DETAILS: 72 hours; read-out: BaF3-TEL-FGFR3 prolif
PROPERTY NAME: GI50 (nM)

Worked set:
CC(C)Oc1cc(NC(=O)NCC(F)(F)F)cc(-c2cnc3cc(OCCO)ccn23)c1 ... 500
CCNC(=O)Nc1cc(OC(C)C)cc(-c2cnc3cc(-c4nnc(C)s4)ccn23)c1 ... 50
CC(C)Oc1cc(NC(=O)NCC(F)(F)F)cc(-c2cnc3cc(-c4ncc(F)c(N)n4)ccn23)c1 ... 120
Cc1nnc(-c2ccn3c(-c4cc(NC(=O)NCC(F)(F)F)cc(OC(C)C)c4)cnc3c2)o1 ... 220
Cc1nnc(-c2ccn3c(-c4cc(NC(=O)NCC(F)(F)F)cc(OC(C)C)c4)cnc3c2)s1.Cl ... 9

[a] CC(C)Oc1cc(NC(=O)NCC(F)(F)F)cc(-c2cnc3cc(OCCCO)ccn23)c1
[b] CC(C)Oc1cc(NC(=O)NCC(F)(F)F)cc(-c2cnc3cc(-c4ccnc(C(F)(F)F)n4)ccn23)c1
[c] CC(C)Oc1cc(NC(=O)NCC(F)(F)F)cc(-c2cnc3cc(-c4nccc(C(C)C)n4)ccn23)c1
[d] CC(C)Oc1cc(NC(=O)NCC(F)(F)F)cc(-c2cnc3cc(-c4nnco4)ccn23)c1
Rank ascending by GI50. Returns: the labels arranged in the requested order.
b, a, d, c

[I] COCc1cc(NC(=O)NCC(F)(F)F)cc(-c2cnc3cc(-c4nnc(C)o4)ccn23)c1
[II] CC(C)Oc1cc(NC(=O)NCC(F)(F)F)cc(-c2cnc3cc(C(=O)C4CC4)ccn23)c1
[III] CC(C)Oc1cc(NC(=O)NCC(F)(F)F)cc(-c2cnc3cc(-c4cc(N(C)C)ncn4)ccn23)c1
Rank ascending by GI50. Returns: the labels arranged in the requested order.
II, III, I
(II: 31 nM, III: 240 nM, I: 350 nM)

[I] CC(C)Oc1cc(NC(=O)NCC(F)(F)F)cc(-c2cnc3cc(N4CCC(F)(F)CC4)ccn23)c1
[II] CC(C)Oc1cc(NC(=O)NCC(F)(F)F)cc(-c2cnc3cc(-c4nccc(C(C)(C)CO)n4)ccn23)c1
Kindly identify the item with the lower GI50 figure among these two: I and II Give the label under which the chosen entry appears.
I
